assayed_target: T1, cynomolgus monkey transferrin receptor 1 (cTfR1) (cynomolgus monkey, UniProt H9EXL1 89-760 (rhesus entry))
T1 construct: The ELISA against cTfR1 is not described in the text
T1 sequence (chain, as listed by the source): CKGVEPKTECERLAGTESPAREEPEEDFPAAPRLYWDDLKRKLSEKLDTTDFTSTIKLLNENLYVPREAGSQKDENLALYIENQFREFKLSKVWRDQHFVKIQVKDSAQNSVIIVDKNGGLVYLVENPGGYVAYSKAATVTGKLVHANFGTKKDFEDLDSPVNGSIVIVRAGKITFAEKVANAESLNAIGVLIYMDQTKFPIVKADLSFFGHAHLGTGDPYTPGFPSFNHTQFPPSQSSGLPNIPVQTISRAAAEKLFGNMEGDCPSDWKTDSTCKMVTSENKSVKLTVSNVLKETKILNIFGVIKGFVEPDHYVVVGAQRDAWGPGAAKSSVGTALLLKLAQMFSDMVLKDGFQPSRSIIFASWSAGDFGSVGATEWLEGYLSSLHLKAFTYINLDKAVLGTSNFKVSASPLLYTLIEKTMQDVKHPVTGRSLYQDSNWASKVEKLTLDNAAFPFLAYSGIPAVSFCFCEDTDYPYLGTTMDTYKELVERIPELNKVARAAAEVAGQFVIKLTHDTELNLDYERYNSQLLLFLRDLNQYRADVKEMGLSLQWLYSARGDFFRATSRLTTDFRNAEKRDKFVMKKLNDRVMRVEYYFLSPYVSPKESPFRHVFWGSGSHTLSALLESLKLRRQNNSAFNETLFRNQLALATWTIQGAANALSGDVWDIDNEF
protocol_text: competition phage ELISA (phage-displayed Fab)
Here the recorded pKd is given for each entry.
The value called pKd is obtained by taking minus log10 of the concentration in mol/L.

Illustrative cases are given below, each with its answer.
binder="Fab0072 (Fab, V domains shown) VH: EVQLVESGGGLVQPGGSLRLSCATSGYTFNSYWMHWVRQAPGKGLEWVAEINPTNGRFNYIEKFKSRITLSVDKSKSTVYLQMNSLRAEDTAVYYCARGTRAYHYWGQGTLVTVSS VL: DIQLTQSPSSLSASVGDRVTITCRASDNLYRNLAWYQQKPGKAPKLLIYDARNLASGVPSRFSGSGSGTDYTLTISSLQPEDFATYYCQHFWGTPLTFGQGTKVEIKR" numeric_value=8.93
binder="Fab0002 (Fab, V domains shown) VH: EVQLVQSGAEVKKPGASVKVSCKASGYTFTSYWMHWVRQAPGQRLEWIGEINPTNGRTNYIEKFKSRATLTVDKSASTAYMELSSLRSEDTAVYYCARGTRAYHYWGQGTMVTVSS VL: DIQMTQSPSSLSASVGDRVTITCRASDNLYSNLAWYQQKPGKSPKLLVYDATNLADGVPSRFSGSGSGTDYTLTISSLQPEDFATYYCQHFWGTPLTFGQGTKVEIKR" numeric_value=9.02
binder="Fab0063 (Fab, V domains shown) VH: EVQLVESGGGLVQPGGSLRLSCATSGYTFTSYWMHWVRQAPGKGLEWVAEINPTNGRVNYIEKFKSRITLSVDKSKSTVYLQMNSLRAEDTAVYYCARGTRAYHYWGQGTLVTVSS VL: DIQLTQSPSSLSASVGDRVTITCRASDGLYSNLAWYQQKPGKAPKLLIYDATRLASGVPSRFSGSGSGTDYTLTISSLQPEDFATYYCQHFWGTPLTFGQGTKVEIKR" numeric_value=8.58
binder="Fab0062 (Fab, V domains shown) VH: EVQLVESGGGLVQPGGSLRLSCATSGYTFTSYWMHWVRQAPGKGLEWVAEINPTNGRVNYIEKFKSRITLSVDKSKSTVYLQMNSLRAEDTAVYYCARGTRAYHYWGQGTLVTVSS VL: DIQLTQSPSSLSASVGDRVTITCRASDGLYSNLAWYQQKPGKAPKLLIYDAFNLASGVPSRFSGSGSGTDYTLTISSLQPEDFATYYCQHFWGTPLTFGQGTKVEIKR" numeric_value=8.46
binder="Fab0074 (Fab, V domains shown) VH: EVQLVESGGGLVQPGGSLRLSCATSGYTFKSYWMHWVRQAPGKGLEWVAEINPTNGRTNYIEKFKSRITLSVDKSKSTVYLQMNSLRAEDTAVYYCARGTRAYHYWGQGTLVTVSS VL: DIQLTQSPSSLSASVGDRVTITCRASDGLYSNLAWYQQKPGKAPKLLIYDAKNLASGVPSRFSGSGSGTDYTLTISSLQPEDFATYYCQHFWGTPLTFGQGTKVEIKR" numeric_value=8.67

## Task Quick one: pKd for Fab0068 (Fab, V domains shown) VH: EVQLVESGGGLVQPGGSLRLSCATSGYTFTSYWVHWVRQAPGKGLEWVAEINPTNGRVNYIEKFKSRITLSVDKSKSTVYLQMNSLRAEDTAVYYCARGTRAYHYWGQGTLVTVSS VL: DIQLTQSPSSLSASVGDRVTITCRASDGLYSNLAWYQQKPGKAPKLLIYDATKLASGVPSRFSGSGSGTDYTLTISSLQPEDFATYYCQHFWGTPLTFGQGTKVEIKR ?
## Result 8.76

Cited source: patent US20260191981A1
